B1: tRNA (parent)
chain: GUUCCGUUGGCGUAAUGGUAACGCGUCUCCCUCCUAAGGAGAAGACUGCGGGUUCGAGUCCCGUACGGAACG

# Variants of: B1
# experiment_notes: yeast fitness relative to wild type (ratio to wild type); higher = fitter; tRNA-Arg(CCU), competitive growth, 37 C, YPD
Fewer inactive variants are shown than the library holds.
yeast fitness values, listed per item

Task: Need yeast fitness, item `GUUACGUUGGAGCAAUGGUAACGCGUCUCCCUCCUAAGGAGAAGACUGCGGGUUCGAGUCCCGUACGGAUCG`
Output: ≤ 0.5

Task: Would you mind doing `GUUCCGUUGGCGUAAUGGUAACGCGUAUCCCUCCUGAGGAGAAGACUGCGGGAUCGAGUCCCGUACGGAGCG` as well?
Output: ≤ 0.5

Task: Next up: `GUUCCGUUGGGGUAAUGGUAACGCGUCUCCCUCCUAUGGAGAAGACUGCGGGUUCGAGUCCCGUACGGAACG`
Output: ≤ 0.5

Task: Similarly, `GUUCCGUUAGCGUAAAGGUAACGCGUCUCGCUCCUAAGGAGAAGACUGCGGGUUCGCGUCCCGUACGGAACG` ?
Output: ≤ 0.5

Task: Can you handle `GUCCCGUUGGCGUAAUGGUAACGCGUUUCCCUUCUAAGGAGAAGACUGCGGGUUCGAGUCACGUACGGAACG` next?
Output: ≤ 0.5

Task: Proceed to `GUUCCGUUGGCGUAAAGGUAACGGGUCUCCCUCCUAAGGAGAAGACUGCGGGUUCGAGUAGCGUACGGAACG`
Output: ≤ 0.5

Task: Same read-out for `GUUCCGUUGGCACACUGGUAACGCGUCUCCCUCCUAAGGAGAAGAGUGCGGGUUCGAGUCCCGUACGGAACG` ?
Output: ≤ 0.5
